Each recorded value in this set is attributed to the CheMixHub viscosity set.

protocol summary: xn = mol fraction of the nth substance listed
condition label: 298.15 K; 103 kPa; x1 = 0.95
outcome measure: viscosity (mPa·s)
Numbers only, in mPa·s.

C[Si]1(C)O[Si](C)(C)O[Si](C)(C)O[Si](C)(C)O1 + CCCCCCCCCC: 1.936
C[Si]1(C)O[Si](C)(C)O[Si](C)(C)O[Si](C)(C)O1 + CCCCCCCCCCCCC: 1.996
C[Si]1(C)O[Si](C)(C)O[Si](C)(C)O[Si](C)(C)O1 + CCCCCCCCCCCC: 1.985

Problem: I would be grateful if you could share the reported viscosity for C[Si]1(C)O[Si](C)(C)O[Si](C)(C)O[Si](C)(C)O1 + CCCCCCCCCCCCCC .
Solution: 2.014

====

condition label: 298.15 K; 101 kPa
What viscosity was measured for each of the following?
One number for each entry, in mPa·s.

Completed entries (count: 4):
CCOC=O: 0.3972
CCCn1cc[n+](C)c1C.F[B-](F)(F)F: 377.3
C[Si]1(C)O[Si](C)(C)O[Si](C)(C)O[Si](C)(C)O1: 2.19
C[n+]1ccn(CCO)c1.O=S(=O)([O-])C(F)(F)C(F)(F)C(F)(F)C(F)(F)F: 831.6

Next compound, viscosity to be filled in.
Problem: I would be grateful if you could share the reported viscosity for "CCCCCC[n+]1ccn(C)c1.[I-]" .
Solution: 1742

====

What viscosity was measured for each of the following?
protocol summary: xn = mol fraction of the nth substance listed
condition label: 318.15 K; 103 kPa; x1 = 0.35
Give bare numbers, in mPa·s.

Completed entries (count: 3):
C[Si]1(C)O[Si](C)(C)O[Si](C)(C)O[Si](C)(C)O1 + CCCCCCCCCCCC: 1.012
C[Si]1(C)O[Si](C)(C)O[Si](C)(C)O[Si](C)(C)O1 + CCCCCCCCCCCCCC: 1.281
C[Si]1(C)O[Si](C)(C)O[Si](C)(C)O[Si](C)(C)O1 + CCCCCCCCCC: 0.778

Next molecule, viscosity to be filled in.
Problem: I would be grateful if you could share the reported viscosity for C[Si]1(C)O[Si](C)(C)O[Si](C)(C)O[Si](C)(C)O1 + CCCCCCCCCCCCC .
Solution: 1.143

====

protocol summary: xn = mol fraction of the nth substance listed
condition label: 298.15 K; 103 kPa; x1 = 0.35
outcome measure: viscosity (mPa·s)
Numbers only, in mPa·s.

Completed entries (count: 3):
C[Si]1(C)O[Si](C)(C)O[Si](C)(C)O[Si](C)(C)O1 + CCCCCCCCCCCCC: 1.614
C[Si]1(C)O[Si](C)(C)O[Si](C)(C)O[Si](C)(C)O1 + CCCCCCCCCCCCCC: 1.833
C[Si]1(C)O[Si](C)(C)O[Si](C)(C)O[Si](C)(C)O1 + CCCCCCCCCCCC: 1.402

Next compound, viscosity to be filled in.
Problem: I would be grateful if you could share the reported viscosity for C[Si]1(C)O[Si](C)(C)O[Si](C)(C)O[Si](C)(C)O1 + CCCCCCCCCC .
Solution: 1.047

====

protocol summary: xn = mol fraction of the nth substance listed
condition label: 318.15 K; 103 kPa; x1 = 0.2
outcome measure: viscosity (mPa·s)
Numbers only, in mPa·s.

C[Si]1(C)O[Si](C)(C)O[Si](C)(C)O[Si](C)(C)O1 + CCCCCCCCCCCC: 0.982
C[Si]1(C)O[Si](C)(C)O[Si](C)(C)O[Si](C)(C)O1 + CCCCCCCCCCCCC: 1.134
C[Si]1(C)O[Si](C)(C)O[Si](C)(C)O[Si](C)(C)O1 + CCCCCCCCCCCCCC: 1.293

Next molecule, viscosity to be filled in.
Problem: I would be grateful if you could share the reported viscosity for C[Si]1(C)O[Si](C)(C)O[Si](C)(C)O[Si](C)(C)O1 + CCCCCCCCCC .
Solution: 0.703

====

condition label: 308.15 K; 101 kPa
Response field label takes true when viscosity is strictly below 0.7 mPa·s and false in all other cases.

Some solved entries appear below for comparison.
CCCCCC[n+]1ccn(C)c1.[I-]: false
C[n+]1ccn(CCO)c1.O=S(=O)([O-])C(F)(F)C(F)(F)C(F)(F)C(F)(F)F: false

Problem: Regarding "C[Si]1(C)O[Si](C)(C)O[Si](C)(C)O[Si](C)(C)O1" , kindly confirm whether its viscosity is beneath 0.7 mPa·s.
Solution: false

Problem: Regarding "CCOC=O" , kindly confirm whether its viscosity is beneath 0.7 mPa·s.
Solution: true

Problem: Regarding "CCCn1cc[n+](C)c1C.F[B-](F)(F)F" , kindly confirm whether its viscosity is beneath 0.7 mPa·s.
Solution: false

====

What viscosity was measured for each of the following?
protocol summary: xn = mol fraction of the nth substance listed
condition label: 308.15 K; 103 kPa; x1 = 0.3
Give bare numbers, in mPa·s.

Completed entries (count: 3):
C[Si]1(C)O[Si](C)(C)O[Si](C)(C)O[Si](C)(C)O1 + CCCCCCCCCCCCC: 1.342
C[Si]1(C)O[Si](C)(C)O[Si](C)(C)O[Si](C)(C)O1 + CCCCCCCCCCCC: 1.167
C[Si]1(C)O[Si](C)(C)O[Si](C)(C)O[Si](C)(C)O1 + CCCCCCCCCC: 0.865

Next compound, viscosity to be filled in.
Problem: I would be grateful if you could share the reported viscosity for C[Si]1(C)O[Si](C)(C)O[Si](C)(C)O[Si](C)(C)O1 + CCCCCCCCCCCCCC .
Solution: 1.527

====

condition label: 318.15 K; 101 kPa
Response field label takes satisfied when viscosity is strictly below 2 mPa·s and not satisfied in all other cases.

Some solved entries appear below for comparison.
CCNc1ccccc1: satisfied
C[n+]1ccn(CCO)c1.O=S(=O)([O-])C(F)(F)C(F)(F)C(F)(F)C(F)(F)F: not satisfied
CCCn1cc[n+](C)c1C.F[B-](F)(F)F: not satisfied
CCCCCC[n+]1ccn(C)c1.[I-]: not satisfied

Could you now look at the following molecule, please?
Problem: Regarding "C[Si]1(C)O[Si](C)(C)O[Si](C)(C)O[Si](C)(C)O1" , kindly confirm whether its viscosity is beneath 2 mPa·s.
Solution: satisfied

====

protocol summary: xn = mol fraction of the nth substance listed
condition label: 308.15 K; 103 kPa; x1 = 0.6
outcome measure: viscosity (mPa·s)
Give bare numbers, in mPa·s.

C[Si]1(C)O[Si](C)(C)O[Si](C)(C)O[Si](C)(C)O1 + CCCCCCCCCCCCCC: 1.515
C[Si]1(C)O[Si](C)(C)O[Si](C)(C)O[Si](C)(C)O1 + CCCCCCCCCCCCC: 1.406
C[Si]1(C)O[Si](C)(C)O[Si](C)(C)O[Si](C)(C)O1 + CCCCCCCCCC: 1.097

Problem: I would be grateful if you could share the reported viscosity for C[Si]1(C)O[Si](C)(C)O[Si](C)(C)O[Si](C)(C)O1 + CCCCCCCCCCCC .
Solution: 1.309

====

What viscosity was measured for each of the following?
protocol summary: xn = mol fraction of the nth substance listed
condition label: 318.15 K; 103 kPa; x1 = 0.3
Numbers only, in mPa·s.

Completed entries (count: 3):
C[Si]1(C)O[Si](C)(C)O[Si](C)(C)O[Si](C)(C)O1 + CCCCCCCCCC: 0.753
C[Si]1(C)O[Si](C)(C)O[Si](C)(C)O[Si](C)(C)O1 + CCCCCCCCCCCC: 1
C[Si]1(C)O[Si](C)(C)O[Si](C)(C)O[Si](C)(C)O1 + CCCCCCCCCCCCCC: 1.287

Next compound, viscosity to be filled in.
Problem: I would be grateful if you could share the reported viscosity for C[Si]1(C)O[Si](C)(C)O[Si](C)(C)O[Si](C)(C)O1 + CCCCCCCCCCCCC .
Solution: 1.139

====

protocol summary: xn = mol fraction of the nth substance listed
condition label: 298.15 K; 103 kPa; x1 = 0.65
What viscosity was measured for each of the following?
Answers are plain numbers, in mPa·s.

C[Si]1(C)O[Si](C)(C)O[Si](C)(C)O[Si](C)(C)O1 + CCCCCCCCCCCCC: 1.715
C[Si]1(C)O[Si](C)(C)O[Si](C)(C)O[Si](C)(C)O1 + CCCCCCCCCCCCCC: 1.831

For every listed record, write down its viscosity.
1. C[Si]1(C)O[Si](C)(C)O[Si](C)(C)O[Si](C)(C)O1 + CCCCCCCCCCCC
2. C[Si]1(C)O[Si](C)(C)O[Si](C)(C)O[Si](C)(C)O1 + CCCCCCCCCC

Solution:
1.6
1.358
